target_entity: DRB1*1501 (Homo sapiens, UniProt P01903+P01911)
test: biochemical
Assay type: binding
No end group written: not given here.
readout_kind: pIC50
pIC50 here: minus log base 10 of the concentration, concentration in moles per litre.

Illustrative cases are given below, each with its answer.
>>> value_reported("LKEFLKGTPKKNCIL [Peptide 89.0086]")
5.11
>>> value_reported("PHAFPFDKNGNPVYE [Peptide 90.0106]")
5.56
>>> value_reported("TPEWIERQTVLQHSF [Peptide 89.0048]")
5.22
>>> value_reported("GIVEQTTTSITSLYQ [Peptide 9000.0054]")
6.07

Look up pIC50 for this sequence: EIYIIEEDTCTMVTG [Peptide 90.0203]
5.19

Look up pIC50 for this sequence: VMFLRYQGVEFMSFL [Peptide 89.0014]
7.52

* * *

Quick list: pIC50 per entry.
target_entity: DRB1*0802 (Homo sapiens, UniProt P01903+P01911, A100R/A103L/A169T/F76Y/H45Y/I96F/K41T/L162R/M171V/P40S/Q125H/Q178H/Q39Y/Q99D/R218S/R42G/S66Y/V115G/W38E)
test: biochemical
Assay type: binding
No end group written: not given here.
pIC50 here: minus log base 10 of the concentration, concentration in moles per litre.

Illustrative cases are given below, each with its answer.
>>> value_reported("DWCVAAFGVTGTVAE [Peptide 89.0042]")
5.46
>>> value_reported("KNRLTVAKLMSNLLS [Peptide 89.0064]")
6.24
>>> value_reported("IHFLQGAIISFVNSN [Peptide 89.0089]")
5.72
>>> value_reported("TPEWIEQQTVLQHSF [Peptide 89.0104]")
4.85
>>> value_reported("EYILDLHPEPTDLFC [Peptide 1543.51]")
4.79

Look up pIC50 for this sequence: GHQVVPPMAVSKAKA [Peptide 90.0011]
5.79

Look up pIC50 for this sequence: VKFLRYQQIEFVSFL [Peptide 89.0052]
5.15

Look up pIC50 for this sequence: MLAVFKDTYGLSFTD [Peptide 90.0050]
5.10

* * *

Quick list: pIC50 per entry.
target_entity: DR4w4 (DRB1*0401) (Homo sapiens, UniProt P01903+P01911, A100K/A169T/F76Y/I96L/K127E/L162R/M171V/N62H/P40V/Q125Y/R42H/S133A/S149N/S66Y/V115G/V209L/W38E)
test: biochemical
Format: binding
pIC50 here: minus log base 10 of the concentration, concentration in moles per litre.

Illustrative cases are given below, each with its answer.
>>> value_reported("CC[C@H](C)[C@H](NC(=O)[C@H](Cc1c[nH]c2ccccc12)NC(=O)[C@H](CCC(=O)O)NC(=O)[C@@H]1CCCN1)C(=O)N[C@@H](CCC(N)=O)C(=O)N[C@@H](CCCNC(=N)N)C(=O)N[C@@H](CCC(N)=O)C(=O)N[C@H](C(=O)N[C@H](C(=O)N[C@@H](CC(C)C)C(=O)N[C@@H](CCC(N)=O)C(=O)N[C@@H](Cc1c[nH]cn1)C(=O)N[C@@H](CO)C(=O)N[C@@H](Cc1ccccc1)C(=O)N[C@@H](CC(N)=O)C(=O)O)C(C)C)[C@@H](C)O [Peptide 89.0011]")
7.74
>>> value_reported("CC(C)C[C@H](NC(=O)[C@H](CCC(N)=O)NC(=O)[C@H](CCCCN)NC(=O)[C@@H](NC(=O)[C@H](CC(C)C)NC(=O)[C@H](CCC(N)=O)NC(=O)[C@@H](NC(=O)[C@H](C)NC(=O)[C@H](CO)NC(=O)[C@@H](NC(=O)[C@@H](NC(=O)[C@H](CC(=O)O)NC(=O)[C@@H](N)CC(=O)O)[C@@H](C)O)C(C)C)[C@@H](C)O)C(C)C)C(=O)N[C@@H](CCC(N)=O)C(=O)N[C@@H](Cc1c[nH]cn1)C(=O)O [Peptide 89.0162]")
7.00
>>> value_reported("CC(C)C[C@H](NC(=O)[C@@H](NC(=O)[C@H](Cc1c[nH]c2ccccc12)NC(=O)[C@H](CC(=O)O)NC(=O)[C@H](CCC(=O)O)NC(=O)[C@@H](NC(=O)[C@H](CCCCN)NC(=O)[C@H](Cc1ccc(O)cc1)NC(=O)[C@H](CCCNC(=N)N)NC(=O)[C@H](CO)NC(=O)[C@@H](N)CCC(N)=O)[C@@H](C)O)[C@@H](C)O)C(=O)N[C@@H](CCC(N)=O)C(=O)N[C@@H](CC(=O)O)C(=O)N[C@H](C(=O)N[C@@H](CS)C(=O)O)[C@@H](C)O [Peptide 90.0179]")
7.15
>>> value_reported("CC[C@H](C)[C@H](N)C(=O)N[C@@H](CCC(=O)O)C(=O)N[C@@H](Cc1ccccc1)C(=O)N[C@H](C(=O)N[C@H](C(=O)N[C@@H](Cc1ccccc1)C(=O)N[C@@H](CC(C)C)C(=O)NCC(=O)N[C@@H](C)C(=O)N[C@@H](CC(C)C)C(=O)N[C@@H](CCCCN)C(=O)N[C@@H](CO)C(=O)N[C@@H](Cc1ccccc1)C(=O)N[C@@H](CC(C)C)C(=O)N[C@@H](CCCCN)C(=O)O)[C@@H](C)O)[C@@H](C)CC [Peptide 89.0033]")
7.13

Look up pIC50 for this compound: CC[C@H](C)[C@H](NC(=O)CNC(=O)[C@@H](NC(=O)[C@H](CCCCN)NC(=O)[C@H](CCC(=O)O)NC(=O)[C@H](CC(N)=O)NC(=O)CNC(=O)[C@H](C)N)[C@@H](C)O)C(=O)N[C@@H](CC(C)C)C(=O)N[C@H](C(=O)N[C@H](C(=O)N[C@H](C(=O)N[C@@H](Cc1ccc(O)cc1)C(=O)N[C@@H](Cc1c[nH]cn1)C(=O)N[C@@H](CO)C(=O)O)[C@@H](C)O)C(C)C)[C@@H](C)O [Peptide 1601.18]
5.40

Look up pIC50 for this compound: CC[C@H](C)[C@H](NC(=O)[C@@H](NC(=O)[C@@H]1CCCN1C(=O)[C@@H](NC(=O)[C@@H](NC(=O)[C@H](CC(N)=O)NC(=O)CNC(=O)[C@H](CO)NC(=O)[C@H](CS)NC(=O)[C@H](CC(C)C)NC(=O)[C@H](CCCCN)NC(=O)[C@H](CCCNC(=N)N)NC(=O)[C@H](CCCNC(=N)N)NC(=O)[C@@H](N)CCCCN)[C@@H](C)O)[C@@H](C)O)[C@@H](C)CC)C(=O)N[C@@H](Cc1c[nH]cn1)C(=O)O [Peptide 1601.16]
6.51

Look up pIC50 for this compound: CC[C@H](C)[C@H](NC(=O)[C@H](Cc1c[nH]c2ccccc12)NC(=O)[C@H](CCC(=O)O)NC(=O)[C@@H]1CCCN1)C(=O)N[C@@H](CCC(=O)O)C(=O)N[C@@H](CCCNC(=N)N)C(=O)N[C@@H](CCC(N)=O)C(=O)N[C@H](C(=O)N[C@H](C(=O)N[C@@H](CC(C)C)C(=O)N[C@@H](CCC(N)=O)C(=O)N[C@@H](Cc1c[nH]cn1)C(=O)N[C@@H](CO)C(=O)N[C@@H](Cc1ccccc1)C(=O)N[C@@H](CC(N)=O)C(=O)O)C(C)C)[C@@H](C)O [Peptide 89.0049]
7.74
